From: ChEMBL document CHEMBL4689842

Tested on: U2OS
Test: Multiplex assay against U2OS
Type: toxicity, cell-based
Settings: human, 24 h, 10 µM, compound concentration 10 uM, replicate 2
Just a reminder that ties go to false (0): only Population Pyknosed Nuclei (%) strictly below 7% counts as true (1).

{"columns": ["compound", "target-under-test", "class-assignment"],
 "data": [
  ["Cc1c(P(=S)(c2ccccc2)c2ccccc2)n2ccccc2[n+]1C/C=C/c1ccccc1.[Br-]", "U2OS", "false (0)"],
  ["CCOc1ccn(-c2ccc(F)cc2)c(=O)c1C(=O)Nc1ccc(Oc2ccnc(N)c2Cl)c(F)c1", "U2OS", "true (1)"],
  ["Cc1ccc(NC(=O)Nc2cc(C(F)(F)F)ccc2F)cc1Nc1ccc2c(c1)NC(=O)/C2=C\\c1ccc[nH]1", "U2OS", "true (1)"],
  ["CC(C)c1cc(Nc2nc(N3CCC[C@H](N)C3)ncc2C(N)=O)cc(C(C)C)n1", "U2OS", "false (0)"],
  ["c1ccc(-c2oc3ncnc(NC[C@@H]4CCCO4)c3c2-c2ccccc2)cc1", "U2OS", "false (0)"],
  ["CN1C(=O)[C@@H](NC(=O)c2cc3ccccc3[nH]2)N=C(c2ccccc2)c2ccccc21 [DEVAZEPIDE]", "U2OS", "false (0)"],
  ["C=CC(=O)Nc1cc(-n2c(=O)ccc3cnc4ccc(-c5ccc(NS(C)(=O)=O)cc5)cc4c32)ccc1C", "U2OS", "false (0)"],
  ["CCCCCNC(=N)N/N=C/c1c[nH]c2ccc(OC)cc12.O=C(O)/C=C\\C(=O)O [TEGASEROD MALEATE]", "U2OS", "false (0)"],
  ["COc1cc(C)c(Sc2cnc(NC(=O)c3ccc(CNC(C)C(C)(C)C)cc3)s2)cc1C(=O)N1CCN(C(C)=O)CC1 (centres undefined)", "U2OS", "false (0)"],
  ["CN(c1cc(C(F)(F)F)nc(OCCC(=O)O)n1)c1cccc2c1CCC2", "U2OS", "true (1)"],
  ["CC[C@@]1(O)C(=O)OCc2c1cc1n(c2=O)Cc2cc3ccccc3nc2-1", "U2OS", "false (0)"],
  ["N#CCNC(=O)c1ccc(-c2ccnc(Nc3ccc(N4CCOCC4)cc3)n2)cc1", "U2OS", "false (0)"],
  ["Cc1c(Nc2ccc(S(=O)(=O)N3CCN(C)CC3)cc2F)nc2ccc(Nc3cnn(C4CC4)c3)cn2c1=O", "U2OS", "false (0)"]
]}
